biological target: Rabbit skeletal muscle α-actin, filamentous (F-actin) (rabbit, UniProt P68135 1-377); settings: both partners purified
Overview of reported Kd across a group of binders:
Please respond with the number in µM and leave the unit unwritten.

{"columns": ["binder", "test.value"],
 "data": [
  ["MGVADLIKKFESISKEK (Lifeact (17 N-terminal residues of yeast ABP140) with E17K, fused to mCherry; One of the plasmids 2479, 2556, 2557, 2558; also called E17K variant of Lifeact; source: E. coli BL21-CodonPlus(DE3)-RIPL, purified (Protino Ni-IDA resin, dialysis)) [E17K Lifeact–mCherry]", 8.1]
]}

Let us move to another entry and its Kd.
In: Entry MGVADLIKKFESISKRE (One of the plasmids 2479, 2556, 2557, 2558; also called E16R Lifeact variant; source: E. coli BL21-CodonPlus(DE3)-RIPL, purified (Protino Ni-IDA resin, dialysis)) [E16R Lifeact–mCherry] has what Kd?
Out: 6
